Every entry's value here was drawn from patent US20220259289A1.

- test target: extracellular domain of human CD137 on the surface of CHO-K1 cells (human, UniProt Q07011 24-186)
- method: flow cytometry on CHO-K1 cells with human CD137 ECD
- Procedure: Cell surface binding was analyzed via flow cytometry. Cenyrins were prepared at a maximal concentration of 500 nM in the presence of 125 nM anti His-mIgG1 antibody and then serially diluted in PBS/1% FCS buffer. Samples were then applied to approx 100 000 CHO-Kl cells expressing the extracellular domain of human CD137 on their surface. Unbound Centyrin/Antibody complexes were washed away and bound FN3 domains were detected by the addition of goat anti mouse-FITC labeled antibody. […]
pEC50: −log10 of the molar value.
measure: pEC50

binder: ISOP193GR9P1A7 (designed binder, not shown: small tags and cut ends) LPAPKNLVVSRVTEDSARLSWTAPDAAFDSFAIFYHEFANPGEAIDLPVPGSERSYDLTGLKPGTEYDVRIYGVKGGTASIPLDAEFTT
pEC50: 6.22
//
binder: ISOP193ER9P1A11 (designed binder, not shown: small tags and cut ends) LPAPKNLVVSRVTEDSARLSWTAPDAAFDSFAIQYQEYVAHGEAIVLTVPGSERSYDLTGLKPGTEYHVRISGVKGGGVSWPLSAIFTT
pEC50: 7.98
//
binder: ISOP193FR9P1H9 (designed binder, not shown: small tags and cut ends) LPAPKNLVVSRVTEDSARLSWTAPDAAFDSFEIYYDELRNPGEAIVLTVPGSERSYDLTGLKPGTEYAVTIYGVKGGRYSPPLSAIFTT
pEC50: 7.14
//
binder: ISOP193ER9P1B5 (designed binder, not shown: small tags and cut ends) LPAPKNLVVSRVTEDSARLSWTAPDAAFDSFAIQYQEYVAHGEAIVLTVPGSERSYDLTGLKPGTEYHVRISGVKGGGVSWPLSAIVTT
pEC50: 8.13
//
binder: ISOP193AR9P1G11 (designed binder, not shown: small tags and cut ends) LPAPKNLVVSRVTEDSARLSWTNEQITKYGFDSFLIQYQESEKVGEAIVLTVPGSERSYDLTGLKPGTEYTVSIYGVGRHYTVYDSNPLSAIFTT
pEC50: 7.98

(I) ISOP193ER9P1E1 (designed binder, not shown: small tags and cut ends) LPAPKNLVVSRVTEDSARLSWTAPDAAFDSFDIYYFEHPVGGEAIVLTVPGSERSYDLTGLKPGTEYLVTIYGVKGGSVSIPLSAIFTT
(II) ISOP193BR9P1B10 (designed binder, not shown: small tags and cut ends) LPAPKNLVVSRVTEDSARLSWAWNRHDFDSFLIQYQESEKVGEAIVLTVPGSERSYDLTGLKPGTEYTVSIYGVHWTVLRPFIDSNPLSAIFTT
Could you tell me which of I and II has the lower pEC50 reading? Selection: enter the item's label. II
